The reader will find reported Bliss excess values listed item by item below.
System: A2780 (Ovarian Carcinoma);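 note: after 72 h of two-drug dosing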
assay notes: Bliss excess, mean over the matrix (fraction); higher = more synergy

{"columns": ["compound", "Bliss excess"],
 "data": [
  ["O=C(c1cc(Cc2n[nH]c(=O)c3ccccc23)ccc1F)N1CCN(C(=O)C2CC2)CC1 [Olaparib] + CN(CC[C@H](CSC1=CC=CC=C1)NC2=C(C=C(C=C2)S(=O)(=O)NC(=O)C3=CC=C(C=C3)N4CCC(CC4)[C@H](C5=CC=CC=C5C6=CC=C(C=C6)Cl)O)S(=O)(=O)C(F)(F)F)CCO [AZD4320] (first compound max 10 µM, 7x7, partner max 1 µM)", -0.0295],
  ["Cc1cc2ncnn2cc1Nc1ncc2c(n1)n(C1CCOCC1)c(=O)n2C [AZD7648] + COc1cc([C@@H]2c3cc4c(cc3[C@@H](O[C@@H]3O[C@@H]5CO[C@@H](C)O[C@H]5[C@H](O)[C@H]3O)[C@H]3COC(=O)[C@H]23)OCO4)cc(OC)c1O [Etoposide] (first compound max 10 µM, 7x7, partner max 10 µM)", 0.085]
]}
